System: H. pylori
Assay: MIC testing by broth dilution, H. pylori
Type: cell-based, Helicobacter pylori
Conditions: Helicobacter pylori; Thiophene analogues table; read-out: MIC H. pylori
Experimental: A standard broth dilution protocol was used in 96 well microplates containing a standard dilution of the microorganism to be tested in 100 microliters of the appropriate medium. […] The wells were scored visually at 24 h. The well where there was no growth was recorded as the MIC. […] In these assays, zone of inhibited growth was measured and compared by relative ratio to the zone recorded for NTZ. […]
property: MIC (µM)

{"molecule": "O=C(Nc1ncc([N+](=O)[O-])s1)c1cccs1 [VPC161195]", "measurement.unit": "µM", "MIC": 2.9}
{"molecule": "O=C(Nc1ncc([N+](=O)[O-])s1)c1sc2ccccc2c1Cl [VPC161181]", "measurement.unit": "µM", "MIC": 2.2}

[P] O=C(Nc1nccs1)c1sc2cc(F)ccc2c1Cl [VPC161235]
[Q] O=C(Nc1ncc([N+](=O)[O-])s1)c1ccc(Br)s1 [VPC161282]
For the two items P and Q , which reports the higher MIC value? Respond using the label that marks the chosen record.
P
(P: 12.8 µM, Q: 3 µM)
